FYI, the data here is from patent US20240018153A1.

- assay-system: UniProt:P00533
- Sequence (P00533 25-1210): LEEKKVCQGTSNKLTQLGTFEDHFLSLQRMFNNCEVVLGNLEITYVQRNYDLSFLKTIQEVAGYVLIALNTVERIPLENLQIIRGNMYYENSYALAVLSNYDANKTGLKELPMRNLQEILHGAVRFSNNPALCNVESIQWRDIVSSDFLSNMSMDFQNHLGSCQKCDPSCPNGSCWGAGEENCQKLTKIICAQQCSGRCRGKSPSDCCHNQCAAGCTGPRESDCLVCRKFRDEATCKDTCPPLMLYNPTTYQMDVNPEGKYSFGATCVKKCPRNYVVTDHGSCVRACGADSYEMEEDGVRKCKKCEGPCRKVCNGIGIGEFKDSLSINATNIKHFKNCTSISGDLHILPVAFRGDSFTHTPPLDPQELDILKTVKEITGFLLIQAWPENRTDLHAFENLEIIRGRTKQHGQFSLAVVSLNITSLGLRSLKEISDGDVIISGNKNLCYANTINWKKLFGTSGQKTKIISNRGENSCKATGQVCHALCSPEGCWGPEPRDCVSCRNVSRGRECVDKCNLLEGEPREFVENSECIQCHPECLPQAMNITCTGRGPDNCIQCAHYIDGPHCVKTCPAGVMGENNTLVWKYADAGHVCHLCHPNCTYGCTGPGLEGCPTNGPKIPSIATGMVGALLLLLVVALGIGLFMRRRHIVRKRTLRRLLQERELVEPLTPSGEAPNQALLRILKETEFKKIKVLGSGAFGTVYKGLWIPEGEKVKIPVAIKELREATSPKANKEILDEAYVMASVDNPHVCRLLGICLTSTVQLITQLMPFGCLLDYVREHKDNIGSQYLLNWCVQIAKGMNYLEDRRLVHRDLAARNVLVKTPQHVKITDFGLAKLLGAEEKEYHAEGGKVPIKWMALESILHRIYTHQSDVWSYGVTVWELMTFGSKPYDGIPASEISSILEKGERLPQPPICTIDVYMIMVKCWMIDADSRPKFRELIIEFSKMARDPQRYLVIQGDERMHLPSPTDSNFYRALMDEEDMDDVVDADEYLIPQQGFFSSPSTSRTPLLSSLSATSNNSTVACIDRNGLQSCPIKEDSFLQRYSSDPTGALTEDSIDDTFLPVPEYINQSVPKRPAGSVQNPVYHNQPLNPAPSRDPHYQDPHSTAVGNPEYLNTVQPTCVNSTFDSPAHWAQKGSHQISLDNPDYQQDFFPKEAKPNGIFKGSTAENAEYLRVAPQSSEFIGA
- assay-name: HTRF KinEASE-TK kinase assay, EGFR
- Format: biochemical
- test-context: 1 μM compound, 3 h preincubation; read-out: % EGFR Remaining activity vs DMSO (1 μM, 3 h)
recorded-endpoint: remaining activity at 1 µM

# compound, observed-value
measured = [
    ("Nc1ncnc2c1c(-c1ccc(Oc3ccccc3)cc1)nn2CCCNC(=O)c1c(F)c(F)c(F)c(F)c1S(N)(=O)=O [Compound I-34]", "< 50%"),
    ("CN(CCn1nc(-c2ccc(Oc3ccccc3)cc2)c2c(N)ncnc21)C(=O)c1c(F)c(F)c(F)c(F)c1S(N)(=O)=O [Compound I-33]", "> 90%"),
    ("COCCOc1ccc(Nc2ncc(F)c(Nc3cccc(NC(=O)c4c(F)c(F)c(F)c(F)c4S(C)(=O)=O)c3)n2)cc1 [Compound I-61]", "> 90%"),
]
